- system: human PD-L1 / Human PD-1 (Homo sapiens (Human), UniProt Q9NZQ7)
- Sequence (Q9NZQ7 19-239): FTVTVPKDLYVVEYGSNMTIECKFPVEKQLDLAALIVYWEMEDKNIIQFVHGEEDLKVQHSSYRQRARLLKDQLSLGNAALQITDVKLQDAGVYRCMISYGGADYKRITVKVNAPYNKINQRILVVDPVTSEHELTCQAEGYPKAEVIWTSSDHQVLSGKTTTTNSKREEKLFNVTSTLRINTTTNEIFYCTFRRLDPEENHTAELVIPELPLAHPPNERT
- method.summary: Enzyme-Linked Immunosorbent Assay (ELISA), PD-1/PD-L1 binding
- measurement.context: Table 2; plate-coated human PD-L1, biotinylated human PD-1; read-out: ELISA IC50
pIC50: −log10 of the molar value.
readout: pIC50

compound	endpoint.value
CCOc1cc(O[C@H]2CCc3c(-c4ccccc4F)cccc32)c(Cl)cc1CN[C@H](CO)C(=O)O [Example 2.156]	6.30 to 7.00
COC(=O)c1cccc(COc2cc(O[C@H]3CCc4c(-c5ccccc5F)cccc43)c(Cl)cc2CN2CCC(O)CC2)c1	4.70 to 6.30
CCCOc1cc(O[C@H]2CCc3c(-c4ccccc4F)cccc32)c(Cl)cc1CN[C@@H](CO)C(=O)O	6.30 to 7.00
CC(C)C[C@H](NCc1cc(Cl)c(O[C@H]2CCc3c(-c4ccccc4F)cccc32)cc1OCc1cncc(C#N)c1)C(=O)O [Example 2.092]	6.30 to 7.00
COc1cc(O[C@H]2CCc3c(-c4ccccc4)cccc32)c(Cl)cc1CN[C@@H](CO)C(=O)O	6.30 to 7.00
C[C@@](CO)(NCc1cc(Cl)c(O[C@H]2CCc3c(-c4ccccc4F)cccc32)cc1-c1cncc(C#N)c1)C(=O)O	> 7.00
COc1cccc(-c2ccc(F)c3c2CCC3Oc2cc(OCc3cncc(C#N)c3)c(CN[C@@H](CO)C(=O)O)cc2Cl)c1F (stereo partly shown)	> 7.00

---

- system: human PD-L1 / Human PD-1 (Homo sapiens (Human), UniProt Q9NZQ7)
- method.summary: Enzyme-Linked Immunosorbent Assay (ELISA), PD-1/PD-L1 binding
- measurement.context: Table 2; plate-coated human PD-L1, biotinylated human PD-1; read-out: ELISA IC50

compound	IC50
COc1cccc(-c2cccc3c2CC(C)C3Oc2cc(OCc3cncc(C#N)c3)c(CN[C@@H](CO)C(=O)O)cc2Cl)c1F (stereo partly shown)	500 to 20000 nM
N#Cc1cncc(COc2cc(O[C@H]3CCc4c(-c5ccccc5F)cccc43)c(Cl)cc2CN[C@@H](CO)C(N)=O)c1	100 to 500 nM
N#Cc1cncc(COc2cc(OC3CCc4c(-c5ccccc5)cccc43)c(Cl)cc2CNCCO)c1 (stereo not shown)	< 100 nM
COc1cccc(-c2cccc3c2CC[C@@H]3Oc2cc(OCc3cncc(C#N)c3)c(CN3CCC[C@@H](O)C3)cc2Cl)c1F	100 to 500 nM
N#Cc1cncc(COc2cc(O[C@H]3CCc4c(-c5ccccc5F)cccc43)c(Cl)cc2CN2CCC(C(=O)O)C2)c1 (stereo partly shown)	< 100 nM
N#Cc1cncc(COc2cc(O[C@H]3CCc4c(-c5ccccc5F)cccc43)c(Cl)cc2CNC2(C(=O)O)CCCC2)c1	< 100 nM
COc1cccc(-c2cccc3c2CC[C@@H]3Oc2cc(OCc3cncc(C#N)c3)c(CN3CCC(O)CC3)cc2Cl)c1F	100 to 500 nM

---

# pIC50 annotations
- system: human PD-L1 / Human PD-1 (Homo sapiens (Human), UniProt Q9NZQ7)
- method.summary: Enzyme-Linked Immunosorbent Assay (ELISA), PD-1/PD-L1 binding
- measurement.context: Table 2; plate-coated human PD-L1, biotinylated human PD-1; read-out: ELISA IC50
pIC50: −log10 of the molar value.

compound	system	pIC50
C[C@@H](O)[C@H](NCc1cc(Cl)c(O[C@H]2CCc3c(-c4ccccc4F)cccc32)cc1OCc1cncc(C#N)c1)C(N)=O [Example 2.149]	human PD-L1 / Human PD-1 (Homo sapiens (Human), UniProt Q9NZQ7)	6.30 to 7.00
CCOc1cc(O[C@H]2CCc3c(-c4ccccc4F)cccc32)c(Cl)cc1CN[C@@H](C)C(=O)O [Example 2.153]	human PD-L1 / Human PD-1 (Homo sapiens (Human), UniProt Q9NZQ7)	6.30 to 7.00
COc1ccc(F)c(-c2cccc3c2CC[C@@H]3Oc2cc(OCc3cncc(C#N)c3)c(CN3CCC(O)CC3)cc2Cl)c1 [Example 2.079]	human PD-L1 / Human PD-1 (Homo sapiens (Human), UniProt Q9NZQ7)	6.30 to 7.00
C[C@@H](NCc1cc(Cl)c(O[C@H]2CCc3c(-c4ccccc4F)cccc32)cc1OCc1cncc(C#N)c1)C(=O)O [Example 2.141]	human PD-L1 / Human PD-1 (Homo sapiens (Human), UniProt Q9NZQ7)	> 7.00
CCOc1cc(O[C@H]2CCc3c(-c4cccc(OC)c4F)cccc32)c(Cl)cc1CN[C@@H](CO)C(=O)O [Example 2.048]	human PD-L1 / Human PD-1 (Homo sapiens (Human), UniProt Q9NZQ7)	> 7.00
COc1cccc(-c2cccc3c2CC[C@@H]3Oc2cc(OCc3cncc(C#N)c3)c(CN3CC(O)C(C(=O)O)C3)cc2Cl)c1F (stereo partly shown) [Example 2.064]	human PD-L1 / Human PD-1 (Homo sapiens (Human), UniProt Q9NZQ7)	> 7.00
N#Cc1cncc(COc2cc(O[C@H]3CCc4c(-c5ccc6c(c5)OCCO6)cccc43)c(Cl)cc2CN[C@@H](CO)C(=O)O)c1 [Example 2.024]	human PD-L1 / Human PD-1 (Homo sapiens (Human), UniProt Q9NZQ7)	> 7.00
